assay: yeast display, Sf9 membrane polyspecificity reagent, FACS + sequencing; frameworks hold sequencing errors
reportedEndpoint: polyreactivity (PSR sort gate)

Example entries begin here.
QVQLVESGGGLVQAGGSLRLSCAASGSIFRRYAMGWYRPAPGKERELVAAITNRGGTTYYADSVKGRFTISRDNAKNTVYLQMNSLNPEDTAVYYCATALWVRYYGQGGYIRRYDYWGQGTQVTVSS = high polyreactivity
QVQLVESGGGLVQAGGSLRLSCAASGRTFKKYAMGWYRQAPGKVREFVARITYSAGSTYYADSVKGRFTISRDNAKNTVYLQMNSLKPEDTAVYYCARRYASSGPRWYSRHGEYDYWGQGTQVTVSS = low polyreactivity
QVQLVESEGGLVQAGGSLRLTCAASGFIYKGYAMGSYRQAPGKETELVAAISSSGTSTYYADSVKGRFTISRDNAKNTVYLQMNSLKPEDTAVYYCARVSKRTWSGYYYWGQGTQVTVSS = high polyreactivity
QVQLVESGGGLGQAGGSLRLSSAASGSIFWFYAMGWYRQAPGKERELVAAITSSGGTDYADSVKGRFSISRDNAKNTVYLQMNSLKPEDSAVYYCAADRIGGPGSYLYDYWGQGTQVTVSS = low polyreactivity
QVQLVESGGGLVQAGGSLRLSCAASGITLHHNAMGWYRQAPGKERELVAAITSNGGSTYYADSVKGRFTISRDNAKNTVYLQMNSLKPEDTAVYYCARDSKRLARYYYWGQGTQVTVSS = low polyreactivity
QVQLEESGGGLVQAGGSLRLSCAASGTTFGINCYGMYRQAPGKERELVAGISVSGGSTYYADSVNGRFTISRDNAYNTVYLQMNSLKPEDTAVYYCAAKWFNRDFDYWGQGTQVTVSS = low polyreactivity
QVQLVESGGGLVQAGGSLRLSCAASGSTFVRYPMGWYRPAPGKERELVAGISRVGNTYYADSVKGRFTISRDNAKNTVYLQMNSLKPEDTAVYYCAARSSRWDGYDYWGQGTQVTVSS = high polyreactivity
QVQLVESGGGLVQAGGSLRLSCAASGRIFAFYVMGWYRQAPGKERELVAAITSGGNTNYADSVKGRFTISRDNAKNTVYLQMNSLKPEDTAVYYCARAWLGQYTLGTYYYWGQGTQVTVSS = low polyreactivity

# polyreactivity (PSR sort gate) of QVQLVESGRGLVQAGGSLRLSCAASGSTFVANDMGWYSQAPGKERELVAAISWSDATTYYADSVKGRGTISRDNAKNTVYLQMNSRKPEDNAVYDCAATRDTNNMDYWGHGTQVTVSS = low polyreactivity

# polyreactivity (PSR sort gate) of QVQLVESGGGLVQAGGSLRLSCAASGSIFWYNAMGWYRQAPGKERELVAGITSGGDTNYADSVKGRFTISRDNAKNTVYLQMNSLKPEDTAVYYCAKRWYGGRRYDYWGQGTQVTVSS = low polyreactivity

# polyreactivity (PSR sort gate) of QVQLVESGGGLVQAGGSLRLSCAASGFIFYRNAMGWYRQAPGKERELVAAISKSGGITYYADSVKGRFTISRDNAKNTVYLQMNSLKPEDTAVYYCAKASQNGYDYWGQGTQVTVSS = high polyreactivity

====

experiment: yeast display, Sf9 membrane polyspecificity reagent, FACS + sequencing; frameworks hold sequencing errors
reportedEndpoint: polyreactivity (PSR sort gate)

QVQRVETGGGLVQARGSLRLSCAASGRIFACYTMGWFRQAPGKERELDAAISWNGGRTYYADSVKGRFTISRDNAKNTVYLQMNSLKPEDTAVYYCAAGKTPQKYGGFNYWGQGTQVTVSS = high polyreactivity
QVQLVESGGGLVQAGGSLRLSCAASGSIFDYYAMGWYRQAPGKERELVATITSGVSTYYADSVKGRFTISRDNAKNTVYLQMNSLKPEDTAVYYCARDYAKSQDLYKYDYWGQGTQVTVSS = low polyreactivity
QVQLVESGGGLVQAGGSLRLSCAASGLIFSYNAMGWYRQAPGKERELVAAISYSGGSTYYADSVKGRFTNSRDNAKNTVYLQMNSLKPEDTAVYYCAAVWRRQGSAYVGSYGYDYWGQGTQVTVSS = high polyreactivity
QVQLVESGGGLVQAGGSLRLSCAASGLIFYYYVMGWYRQAPGKERELVARISTSGGSTYYADSVKGRFTISRDNAKNTVYLQMNSLKPEDTAVYYCAARGYRQYGWDGYWGQGTQVTVSS = low polyreactivity

# polyreactivity (PSR sort gate) of QVQLVDSGGGLVQAGGSLRLSCAASGSIFQYYAMGWYRQAPGKEMELVAAITSVSSTSYADSVKGRFTISRDNAKNTVYLQMNSLKPEDTAVYYCDAAFRRGLLKMDYWGQGTQVTVSS = low polyreactivity

====

assay: yeast display, Sf9 membrane polyspecificity reagent, FACS + sequencing; frameworks hold sequencing errors
reportedEndpoint: polyreactivity (PSR sort gate)

QVQLVESGGGLVQAGGSLRLICAASGITFYYYAMGWYRQAPGKERELVAAITFTGGSTYYADSVKGRFTISRDNAKNTVYLQMNSLKPEDTAVYYCNRLGPLGDQQQYDYWGQGTQVTVSS = low polyreactivity
QVQLVESGGGLVQAGGSLRLSCAASGRISGFYTMGWYRQAPGKERELVATITRSGSRTYYADSVKGRFTISRDNAKNTVYLQMNSLKPEDTAVYYCARSQAVYDGWFAKFGYWGQGTQVTVSS = low polyreactivity
QVQLVESVGALVQARGSLRLSCAASGFTFRPYAMGWYRQAPGKERELVAAITRSGGSTYYADSVKGRFTISRDTAKNTVYLQMNSLKPEDTAVYYCAARFARSEYDYWGQGTQVTVSS = high polyreactivity
QVQLVESGGGLVQTGGSLRLSCAASGLTLYVYAMGWYRQAPGKERELVASITSGGSTNYADSVKGRFTISRDNAKNTVYLQMNSLKPEDTAVYYCAAETDTVYDWIAPYVTYDYWGQGTQVTVSS = low polyreactivity
QVQLVESGGGLVQAGGSLRLSCAASGIIIRKYAMGWYRQAPGKERELVAAITTRGSRTYYADSVKGRFTISRDNAKNTVYLQMNSLKPEDTAVYYCAADRYTVRMDYWGQGTQVTVSS = high polyreactivity

# polyreactivity (PSR sort gate) of QVQLVESGGGLVQAGGSLRLSCAASGITFYVNAMGWYRQAPGKERELVAAISNGGSTNYADSVKGRFTISRDNAKNTVYLQMNSLKPEDTAVYYCAARPSYGRYRYYYWGQGTQVTVSS = high polyreactivity

# polyreactivity (PSR sort gate) of QVQLVESGGGLVQAGGSLRLSCAASGSIFIDNAMGWDRQAPGKEREFVAAISKSGTSTYYADSVKGRFTISRDNAKNTVYLQMNSLKPEDTAVYYCAVRRPRPYSNYYYWGQGTQVTVSS = high polyreactivity

# polyreactivity (PSR sort gate) of QVQLVESGGGIVQAGGRLRLSCAASGITFRFYAMGWYRQAPGKERELVAVISRGGGTTYYADSVKGRFTISRDNEKNTVYLEMNSLKPEDTEVFYCNAVFAWYRSDEYDYWGQGTLVTVSS = high polyreactivity

# polyreactivity (PSR sort gate) of QVKLVESGGGLVQAGGSLRLSCSASGFTFRFYAMGWYIQAPGKERELVASITRSGGSTYYADSVKGRFTISRDNAKNTVYLQMNSLKPEDTAVYYCAAYRCYVSYKEMYYLGQGTQVTVSS = high polyreactivity

# polyreactivity (PSR sort gate) of QVQIVESGGGLVQAGGSLSLSCAASGRTFAGNAMGWYRQAPGKEMELVASISSSGGRTYYADSVKGRFTISRDNAKNTVYLQMISLKPEDTAVYYCAARGGYVSTWTRFSKYNYWGQGTQVTVSS = high polyreactivity

# polyreactivity (PSR sort gate) of QVQLVESGGGLVQAGGSLRLSCAASGSILGTNAMGWYRQAPGKESELVAAINYSGGNTYYADSVKGRFTISRDNAKNTVYLQMNSLKPEDTAVYYCAAVNGWRRVKRFDYWGQGTQVTVSS = high polyreactivity

====

assay: yeast display, Sf9 membrane polyspecificity reagent, FACS + sequencing; frameworks hold sequencing errors
reportedEndpoint: polyreactivity (PSR sort gate)

QVQLVESGGGLVQAGGSLRLSCAASGFTFNYYAMGWYRQAHGKEREFVAAISRGGGRTYYADSVKGRFTISRDNAKNTVYLQMNSLKPEDTAVYYCAAQSVPYAYRLASYDYWGQGTQVTVSS = high polyreactivity
QVQHVESGGGVVQAGRSLRLRCDASGFILWYYTMGWYRPAPGKERELVAAISRGGTTYYADSVKGRFTISRDNAKKSVYLQMTSLKPEDTAVYYCNAPDNTHGIVLYDYWGQGTQVTVSS = low polyreactivity
QVQLVESGGGLVQAGGSLRLSCAASGFIFPRYVMGWSRQAPGKERELVAAINSDISTNYADSVKGRFTISRDNAKNTVYLQMNSLKPEDTAVYDCAAERWDDRWEFDYWGQGTQVTVSS = low polyreactivity
QVQLEESGGGLVQAGGSLRLSCAASGSIFVYNAMGWYRQAPGKERELVAAISQRGGSTYYADSVKGRFTISRDNDKNTVYLQMNSLKPEDTAVYYCAAGPGDSGDDYWGQGTQVTVAS = low polyreactivity

# polyreactivity (PSR sort gate) of QVQLVESGGGLVQAGGSLRLSCAASGRILDKYAMGWYRPAPGKERELVARIRFSGGDTYADSVKGRFTISRDNAKNTVYLQMNSLKPEDTAVYYCNKDRRNRWDAFDYWGQGTQVTVSS = low polyreactivity

# polyreactivity (PSR sort gate) of QVQLGDSGGGLVQAGGSLRLICAASGLTIPDNTMGWYRQAPGKERELVSAIDWSGGGTDYADSVKGRFTISRDNAKNTVYLQMNSLYPVDTAVYYCATSWYIYPYDDWGQGTQVTVSS = low polyreactivity

# polyreactivity (PSR sort gate) of QVQLVESGGGLVQAGGSLRLSCPASGFTFDVNAMGSYRQAPGKERELVATISSNGGSTYYADSVKGRFTISRDNAKNTVYLQMNSLKPEDTAVYYCNRGEIYFDNDDFDYWGQGTQVTVSS = low polyreactivity
